B1: STK38L (parent)
chain: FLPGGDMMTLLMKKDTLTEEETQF

Variants of: B1
ASSAY_TEXT: protein stability index of a GFP-peptide fusion (GPS, HEK-293T) (PSI 1-6); higher = more stable;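 also: lentivirally expressed fusions sorted by FACS into six bins by GFP to DsRed ratio, PSI derived from sequencing read proportions per bin multiplied by bin number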
MEASUREMENT_CONDITIONS: c terminus: a fixed tail appended
Would you mind classing the entries by protein stability index? Ranges: low-valued = under 2, mid-valued = from 2 up to 3, high-valued = 3 and over

{"columns": ["MUTATION_STRING", "ASSIGNED_CATEGORY"],
 "data": [
  ["P3M", "mid-valued"],
  ["M12H", "high-valued"],
  ["L17W", "low-valued"],
  ["M12I", "mid-valued"],
  ["P3D", "mid-valued"],
  ["F1C", "high-valued"],
  ["P3Y", "low-valued"],
  ["F24A", "mid-valued"],
  ["T9K", "mid-valued"],
  ["Q23C", "mid-valued"],
  ["F1L", "high-valued"],
  ["G5H", "mid-valued"],
  ["T16D", "mid-valued"],
  ["L2T", "mid-valued"],
  ["G4S", "mid-valued"],
  ["K14W", "low-valued"],
  ["F1T", "high-valued"],
  ["G4T", "high-valued"],
  ["M12Y", "mid-valued"],
  ["Q23G", "mid-valued"],
  ["M7R", "high-valued"],
  ["M7F", "mid-valued"],
  ["M8C", "high-valued"],
  ["E20P", "low-valued"],
  ["T22S", "mid-valued"],
  ["L11F", "low-valued"],
  ["M7I", "mid-valued"],
  ["F24R", "mid-valued"],
  ["T18E", "mid-valued"],
  ["L10M", "high-valued"],
  ["T9G", "mid-valued"],
  ["E19F", "low-valued"],
  ["L11A", "high-valued"],
  ["E19Q", "mid-valued"],
  ["K13D", "high-valued"],
  ["P3R", "mid-valued"],
  ["M12F", "mid-valued"],
  ["M8V", "mid-valued"],
  ["K13W", "low-valued"],
  ["D15V", "mid-valued"],
  ["T9W", "mid-valued"],
  ["F1A", "high-valued"]
]}
